# Procedure Details: Inhibition of MCP1-stimulated chemotaxis in monocytes transfected with human CCR2
Quantity Measured: pIC50
The value called pIC50 is obtained by taking minus log10 of the concentration in mol/L.

Example entries begin here.
Query string: Consider the compound shown here: CC(=O)Nc1nc([C@H](CCN2CCC(c3ccccc3)CC2)C(=O)NCc2cc(C(F)(F)F)cc(C(F)(F)F)c2)cs1 What is its recorded pIC50?
Result string: 9.15

Query string: Consider the compound shown here: CNC(=O)Nc1nc([C@@H](CCN2CCC(c3ccccc3)CC2)C(=O)NCc2cc(C(F)(F)F)cc(C(F)(F)F)c2)cs1 What is its recorded pIC50?
Result string: 7.06

Query string: Consider the compound shown here: CNC(=O)Nc1nc([C@H](CCN2CCC(c3ccccc3)CC2)C(=O)NCc2cc(C(F)(F)F)cc(C(F)(F)F)c2)cs1 What is its recorded pIC50?
Result string: 8.74

Query string: Consider the compound shown here: CC(=O)Nc1nc(C(CCN2CCC3(C=Cc4ccccc43)[C@@H](C)C2)C(=O)NCc2cc(C(F)(F)F)cc(C(F)(F)F)c2)cs1 (some centres not stated) What is its recorded pIC50?
Result string: 9.22

Query string: Consider the compound shown here: CC(=O)Nc1nc(C(CCN2CCC3(C=Cc4ccccc43)CC2)C(=O)NCc2cc(C(F)(F)F)cc(C(F)(F)F)c2)cs1 (configuration not stated) What is its recorded pIC50?
Result string: 9.15

Further cases:
Query string: Consider the compound shown here: CC(=O)Nc1nc([C@@H](CCN2CCC3(C=Cc4ccccc43)CC2)C(=O)NCc2cc(C(F)(F)F)cc(C(F)(F)F)c2)cs1 What is its recorded pIC50?
Result string: 7.57

Query string: Consider the compound shown here: CC(=O)Nc1nc([C@H](CCN2CCC3(C=Cc4ccccc43)CC2)C(=O)NCc2cc(C(F)(F)F)cc(C(F)(F)F)c2)cs1 What is its recorded pIC50?
Result string: 8.28

Source: BindingDB's records for doi:10.1016/j.bmcl.2006.10.059
